- TARGET: EGFR on the surface of human tumour cells (A431, H292) (human, UniProt P00533 25-1210)
- PROTOCOL DETAILS: cell-based or functional assay
VALUE TYPE: A431 pEGFR IC50 (In-Cell Western) (nM)
Answer with a number only, understood to be in nM.

Consider the reported A431 pEGFR IC50 (In-Cell Western) for these binders:
| BINDER | READOUT NUMBER |
| --- | --- |
| E3-GS10-I1 pegylated, His-tagged (designed binder, 40 kDa branched PEG on the Cys of the C-terminal Cys tail, also called E3-GS10-I1-Cys (with his)) MGVSDVPRDLEVVAATPTSLLISWLPGKLRYQYYRITYGETGGNSPVQEFTVPHDLRTATISGLKPGVDYTITVYAVTNMMHVEYSEYPISINYRTEIDKGSGSGSGSGSGSGSGSGSGSVSDVPRDLEVVAATPTSLLISWSARLKVARYYRITYGETGGNSPVQEFTVPKNVYTATISGLKPGVDYTITVYAVTRFRDYQPISINYRTEIDKPCQHHHHHH | 42 |
| E1-GS10-I1, His-tagged, non-pegylated (designed binder, bispecific EGFR/IGF-IR tandem of two 10Fn3 domains) MGVSDVPRDLEVVAATPTSLLISWVAGAEDYQYYRITYGETGGNSPVQEFTVPHDLVTATISGLKPGVDYTITVYAVTDMMHVEYTEHPISINYRTEIDKGSGSGSGSGSGSGSGSGSGSVSDVPRDLEVVAATPTSLLISWSARLKVARYYRITYGETGGNSPVQEFTVPKNVYTATISGLKPGVDYTITVYAVTRFRDYQPISINYRTEIDKPSQHHHHHH | 36 |
| E1-GS10-I1 pegylated, His-tagged (designed binder, 40 kDa branched PEG on the Cys of the C-terminal Cys tail, also called E1-GS10-I1 (with PEG)) MGVSDVPRDLEVVAATPTSLLISWVAGAEDYQYYRITYGETGGNSPVQEFTVPHDLVTATISGLKPGVDYTITVYAVTDMMHVEYTEHPISINYRTEIDKGSGSGSGSGSGSGSGSGSGSVSDVPRDLEVVAATPTSLLISWSARLKVARYYRITYGETGGNSPVQEFTVPKNVYTATISGLKPGVDYTITVYAVTRFRDYQPISINYRTEIDKPCQHHHHHH | 297 |

// next item, A431 pEGFR IC50 (In-Cell Western) requested
Prompt line: Name the recorded A431 pEGFR IC50 (In-Cell Western) of the item E3-GS10-I1, non-pegylated (designed binder) VSDVPRDLEVVAATPTSLLISWLPGKLRYQYYRITYGETGGNSPVQEFTVPHDLRTATISGLKPGVDYTITVYAVTNMMHVEYSEYPISINYRTEIDKGSGSGSGSGSGSGSGSGSGSVSDVPRDLEVVAATPTSLLISWSARLKVARYYRITYGETGGNSPVQEFTVPKNVYTATISGLKPGVDYTITVYAVTRFRDYQPISINYRTEIDKPSQ in your answer.
Response line: 14
